Tested on: modified version of the GPR119 receptor (94% identity to human receptor)
Test: cAMP production assay (LANCE cAMP kit, TR-FRET) in HEK-293 cells
Type: cell-based
Conditions: HEK-293 cells stably expressing modified GPR119; test compounds 0.2 nM to 10 μM, one-hour incubation
Below, each entry is listed alongside its reported cAMP production in HEK-293 cells.

{"columns": ["compound", "cAMP production in HEK-293 cells [nmol]"],
 "data": [
  ["CS(=O)(=O)c1ccc(N[C@H]2CCN(C3CCN(c4nc(-c5ccccc5)ns4)CC3)C2=O)c(F)c1", 9.7],
  ["CC(C)c1nsc(N2CCC(N3CC[C@@H](Oc4ccc(S(C)(=O)=O)cc4F)C3=O)CC2)n1", 33.3],
  ["CC(C)c1nsc(N2CCC(N3CCC(Oc4ccc(C(=O)N(C)CCN)cc4F)C3=O)CC2)n1 (centres unmarked)", 16.1],
  ["CCS(=O)(=O)c1ccc(OC2CCN(C3CCN(c4nc(C)ns4)CC3)C2=O)c(F)c1 (centres unmarked)", 8.6],
  ["CC(C)(C)c1nsc(N2CCC(N3CC[C@H](Oc4c(F)cc(S(C)(=O)=O)cc4F)C3=O)CC2)n1", 23.2],
  ["Cc1cc(S(C)(=O)=O)ccc1NC1CCN(C2CCN(c3nc(C(C)C)ns3)CC2)C1=O (centres unmarked)", 13.0],
  ["CC(C)c1nsc(N2CCC(N3CC[C@@H](Nc4ccc(S(C)(=O)=O)cc4F)C3=O)CC2)n1", 21.9],
  ["COC(C)(C)c1nsc(N2CCC(N3CC[C@H](Oc4ccc(S(C)(=O)=O)cc4F)C3=O)CC2)n1", 42.1],
  ["CC(C)(C)c1nsc(N2CCC(N3CCC[C@H](Nc4ccc(S(C)(=O)=O)cc4F)C3=O)CC2)n1", 13.9],
  ["CC(C)c1nsc(N2CCC(N3CC[C@H](Nc4ccc(S(C)(=O)=O)cn4)C3=O)CC2)n1", 27.2],
  ["CC(C)c1nsc(N2CCC(N3CC[C@H](Nc4ccc(S(=O)(=O)C(C)C)cc4F)C3=O)CC2)n1", 37.6]
]}

----------
System: modified version of the GPR119 receptor (94% identity to human receptor)
Assay: cAMP production assay (LANCE cAMP kit, TR-FRET) in HEK-293 cells
Format: cell-based
Details: increase in cAMP relative to basal levels; agonist activity if 1.5-fold or greater
Below, each entry is listed alongside its reported Fold over baseline.
quantity measured: Fold over baseline

{"columns": ["smiles str", "data value"],
 "data": [
  ["CC(C)c1nsc(N2CCC(N3CC[C@H](Nc4ccc(S(C)(=O)=O)c(Cl)c4)C3=O)CC2)n1", 3.0],
  ["CC(C)c1nsc(N2CCC(N3CC[C@H](N(C)c4cc(F)c(S(C)(=O)=O)cc4F)C3=O)CC2)n1", 3.9],
  ["CC(C)c1nsc(N2CCC(N3CC[C@H](Oc4cc(F)c(S(C)(=O)=O)cc4F)C3=O)CC2)n1", 3.9],
  ["CC(C)(C)c1nsc(N2CCC(N3CC[C@H](Oc4ccc(S(C)(=O)=O)cc4F)C3=O)CC2)n1", 3.7],
  ["CS(=O)(=O)c1cc(F)c(N[C@H]2CCN(C3CCN(c4nc(C(F)(F)F)ns4)CC3)C2=O)c(F)c1", 3.0],
  ["CC(C)Cc1nsc(N2CCC(N3CCC[C@H](Nc4ccc(S(C)(=O)=O)cc4F)C3=O)CC2)n1", 2.3],
  ["CS(=O)(=O)c1cc(F)c(O[C@H]2CCN(C3CCN(c4cnc(C(F)(F)F)o4)CC3)C2=O)cc1F", 4.1],
  ["COC(C)(C)c1nsc(N2CCC(N3CC[C@H](Oc4cc(F)c(S(C)(=O)=O)cc4F)C3=O)CC2)n1", 3.7]
]}
